# Assay System: Cytochrome P450 2D6 (Homo sapiens) (UniProt P10635)
# Sequence (P10635 whole entry, looked up): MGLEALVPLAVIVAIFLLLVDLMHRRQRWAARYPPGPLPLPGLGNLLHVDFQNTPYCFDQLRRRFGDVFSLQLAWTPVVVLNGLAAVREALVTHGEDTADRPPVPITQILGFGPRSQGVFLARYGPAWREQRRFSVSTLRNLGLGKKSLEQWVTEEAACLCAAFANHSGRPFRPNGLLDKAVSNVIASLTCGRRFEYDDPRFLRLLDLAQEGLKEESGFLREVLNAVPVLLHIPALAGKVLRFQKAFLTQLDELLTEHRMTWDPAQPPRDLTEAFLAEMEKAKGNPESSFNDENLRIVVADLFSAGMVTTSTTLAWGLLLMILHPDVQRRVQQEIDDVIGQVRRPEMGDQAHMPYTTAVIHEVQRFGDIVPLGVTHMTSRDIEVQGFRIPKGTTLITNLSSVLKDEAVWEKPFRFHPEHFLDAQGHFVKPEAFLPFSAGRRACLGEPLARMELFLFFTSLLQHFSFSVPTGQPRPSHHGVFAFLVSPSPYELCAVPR
# Experimental Protocol: Cytochrome panel assay with activity outcomes
# Condition Label: recombinant CYP, pro-luciferin dealkylation, luminescence, p450-cyp2d6; series mostly up to 57.1 µM
Screen size: about 16,000 compounds; about 2,600 (16%) were called active. Roughly 20% stayed inconclusive and do not appear here. Calls come from the whole dose curve; as a rule, active = well fitted curve in the direction sought with a large enough effect; inconclusive = small, poorly fitted or top-dose-only effect, or effect the other way; inactive = no such curve, though single readings can be large or run the other way. These entries were drawn from the full list.
In this exercise, the only acceptable responses are label 1 = active, label 0 = inactive

> print(dat)
                                   compound    label
1  CCn1c(CC(=O)Nc2ccc(C)cc2)nnc1SCC(=O)NCCc1ccccc1  label 0
2                      N=C(N)N1CCc2ccccc2C1  label 0
3           CCOc1ccc(NC(=O)c2ccc(OC)cc2)cc1  label 0

For `CCn1c(=O)[nH]c2ccccc2c1=O` , what call appears in the results of this test?
label 0

For COc1ccccc1C(=O)NN1C(=O)C2C3C=CC(O3)C2C1=O (centres undefined) , what call appears in the results of this test?
label 0

For `CCCCN1CCC(n2c(=O)[nH]c3ccccc32)CC1` , what call appears in the results of this test?
label 1

For `O=C(Nc1nnc(-c2ccc(Cl)cc2)o1)Nc1ccccc1Cl` , what call appears in the results of this test?
label 0

###

# Assay System: Cytochrome P450 2D6 (Homo sapiens) (UniProt P10635)
# Experimental Protocol: Cytochrome panel assay with activity outcomes; for activity, negative = inhibition: % is set by controls: 0 for no effect and ±100 for the full control effect
# Condition Label: recombinant CYP, pro-luciferin dealkylation, luminescence, p450-cyp2d6; series mostly up to 57.1 µM
Hit rate of the full screen: of about 16,000 compounds, about 2,600 (16%) were called active. Inconclusive results (about 20%) are left out. Not all results are given here.
Result Type: activity, negative = inhibition

Please state, for each entry, its recorded activity, negative = inhibition.
1. Nc1ccc2[nH]cc(CCC(=O)O)c2c1
2. NS(=O)(=O)c1ccc(NC(=O)Nc2cccc3ccccc23)cc1
3. O=C(O)[C@@H](S)[C@H](S)C(=O)O
4. C=CC1=C[C@@H](O)C2OC2C12OCCCO2 (stereo not given in full)
5. CCCC1c2c(ccc3ccccc23)Oc2ccc3ccccc3c21

["5.9% [at 11.4 µM] (inactive)", "-5.78% [at 11.4 µM] (inactive)", "-4.31% [at 11.4 µM] (inactive)", "-1.06% [at 11.4 µM] (inactive)", "4.73% [at 11.4 µM] (inactive)"]

Please state, for each entry, its recorded activity, negative = inhibition.
1. COC(=O)C/C=C\[C@@H](C)[C@@H](/C=N\OC[C@@H]1O[C@H](c2ccccc2)C=C[C@@H]1Oc1ccc(OC)cc1)NS(=O)(=O)c1ccc(C)cc1
2. O=C(O)c1cc(=O)[nH]c(SCc2ccccc2)n1
3. C=C(C)COc1ccc2c(c1)CCC1C2CC[C@]2(C)C(=O)/C(=N/O)CC12 (stereo not given in full)
4. O=C(O)CCCSc1ccccc1

-14% [at 11.4 µM] (inactive)
4.29% [at 11.4 µM] (inactive)
14.1% [at 11.4 µM] (inactive)
0.436% [at 11.4 µM] (inactive)

Can you look up activity, negative = inhibition on Cytochrome P450 2D6 (Homo sapiens) (UniProt P10635) for `CCOC(=O)CCN1C(=O)[C@H]2[C@H]3[C@H](O)[C@H](O)C/C(=N/OC[C@@H](O)COCc4ccco4)[C@H]3CC[C@@H]2C1=O` ?
8.09% [at 11.4 µM] (inactive)
